From: patent US20190241669A1

- Experimental system: Human BCMA (human) (UniProt Q02223)
- Assay explanation: SPR, IgG on chip, huBCMA analyte
Outcome measure: koff (s⁻¹)
Quick note: give the figure in s⁻¹, leave out the unit.

Noted for P5A2_VHVL (antibody, V domains shown, IgG) VH: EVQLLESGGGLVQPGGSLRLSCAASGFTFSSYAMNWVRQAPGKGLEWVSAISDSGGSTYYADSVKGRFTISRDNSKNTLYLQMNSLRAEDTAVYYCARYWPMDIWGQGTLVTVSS VL: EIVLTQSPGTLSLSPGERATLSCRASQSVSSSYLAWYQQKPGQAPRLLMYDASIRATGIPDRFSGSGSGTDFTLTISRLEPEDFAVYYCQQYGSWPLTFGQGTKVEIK : its koff reads 0.0387

Noted for A02_Rd4_6nM_C01 (antibody, V domains shown, IgG) VH: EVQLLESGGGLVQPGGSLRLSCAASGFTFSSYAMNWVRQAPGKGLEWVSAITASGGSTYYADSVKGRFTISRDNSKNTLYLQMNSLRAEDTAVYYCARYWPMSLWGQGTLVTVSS VL: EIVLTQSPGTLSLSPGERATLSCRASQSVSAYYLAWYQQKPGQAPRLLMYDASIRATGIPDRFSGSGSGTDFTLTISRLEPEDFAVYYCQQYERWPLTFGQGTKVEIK : its koff reads 9.2e-05

Noted for COMBO_Rd4_6nM_C10 (antibody, V domains shown, IgG) VH: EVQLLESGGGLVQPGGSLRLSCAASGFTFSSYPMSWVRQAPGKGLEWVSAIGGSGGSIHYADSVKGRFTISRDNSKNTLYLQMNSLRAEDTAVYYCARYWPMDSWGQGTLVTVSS VL: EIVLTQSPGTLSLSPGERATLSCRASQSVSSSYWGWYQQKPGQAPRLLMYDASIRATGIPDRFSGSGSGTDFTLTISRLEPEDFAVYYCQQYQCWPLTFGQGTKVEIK : its koff reads 9.72e-05

Noted for COMBO_Rd4_0.6nM_C05 (antibody, V domains shown, IgG) VH: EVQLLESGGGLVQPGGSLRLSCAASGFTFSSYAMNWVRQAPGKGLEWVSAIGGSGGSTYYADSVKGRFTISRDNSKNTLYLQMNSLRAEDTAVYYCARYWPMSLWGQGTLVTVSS VL: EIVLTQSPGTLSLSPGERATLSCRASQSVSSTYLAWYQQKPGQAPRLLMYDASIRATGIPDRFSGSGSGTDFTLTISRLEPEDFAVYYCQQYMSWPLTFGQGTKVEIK : its koff reads 0.000497

Noted for COMBO_Rd4_0.6nM_C17 (antibody, V domains shown, IgG) VH: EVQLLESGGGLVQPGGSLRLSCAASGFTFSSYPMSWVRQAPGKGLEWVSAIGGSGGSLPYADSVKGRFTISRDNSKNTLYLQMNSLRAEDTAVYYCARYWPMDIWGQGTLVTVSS VL: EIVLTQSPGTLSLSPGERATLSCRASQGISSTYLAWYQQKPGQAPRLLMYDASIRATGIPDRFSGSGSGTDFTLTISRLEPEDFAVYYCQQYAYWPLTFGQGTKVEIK : its koff reads 0.000801
